System: Botrtyis cinerea (Bc)
experimentalDetails: Growth inhibition assay of fungal pathogens
Assay type: cell-based
assayContext: 48 h, Table 4b, read-out: Concentration at 90% Inhibition Bc
Quick reference for IC90 among some molecules
The response must be a number in µg/mL with no trailing unit.

>  <structureAsSmiles>
COc1ccccc1[C@H](Cn1c(=O)n(C(C)(C)C(N)=O)c(=O)c2c(C)c(-n3cccn3)sc21)OCC(C)C

>  <targetEntity>
Botrtyis cinerea (Bc)

>  <quantityMeasured>
IC90

>  <numericReadout>
10

$$$$
>  <structureAsSmiles>
COCCO[C@@H](Cn1c(=O)n(C(C)(C)C(=O)NC(C)C)c(=O)c2c(C)c(-n3cccn3)sc21)c1cc(F)ccc1OC

>  <targetEntity>
Botrtyis cinerea (Bc)

>  <quantityMeasured>
IC90

>  <numericReadout>
10

$$$$

Then there is this molecule:
Q: For the record "COc1ccc(F)cc1[C@H](Cn1c(=O)n(C(C)(C)C(N)=O)c(=O)c2c(C)c(-n3cccn3)sc21)O[C@H]1CC[C@@H](O)CC1" , what value of IC90 is listed for Botrtyis cinerea (Bc)?
Result: 2

====

Reported IC50 values for a set of compounds
targetEntity: fungal (fACC2) ACC2 (UniProt Q00955)
Sequence (Q00955 whole entry): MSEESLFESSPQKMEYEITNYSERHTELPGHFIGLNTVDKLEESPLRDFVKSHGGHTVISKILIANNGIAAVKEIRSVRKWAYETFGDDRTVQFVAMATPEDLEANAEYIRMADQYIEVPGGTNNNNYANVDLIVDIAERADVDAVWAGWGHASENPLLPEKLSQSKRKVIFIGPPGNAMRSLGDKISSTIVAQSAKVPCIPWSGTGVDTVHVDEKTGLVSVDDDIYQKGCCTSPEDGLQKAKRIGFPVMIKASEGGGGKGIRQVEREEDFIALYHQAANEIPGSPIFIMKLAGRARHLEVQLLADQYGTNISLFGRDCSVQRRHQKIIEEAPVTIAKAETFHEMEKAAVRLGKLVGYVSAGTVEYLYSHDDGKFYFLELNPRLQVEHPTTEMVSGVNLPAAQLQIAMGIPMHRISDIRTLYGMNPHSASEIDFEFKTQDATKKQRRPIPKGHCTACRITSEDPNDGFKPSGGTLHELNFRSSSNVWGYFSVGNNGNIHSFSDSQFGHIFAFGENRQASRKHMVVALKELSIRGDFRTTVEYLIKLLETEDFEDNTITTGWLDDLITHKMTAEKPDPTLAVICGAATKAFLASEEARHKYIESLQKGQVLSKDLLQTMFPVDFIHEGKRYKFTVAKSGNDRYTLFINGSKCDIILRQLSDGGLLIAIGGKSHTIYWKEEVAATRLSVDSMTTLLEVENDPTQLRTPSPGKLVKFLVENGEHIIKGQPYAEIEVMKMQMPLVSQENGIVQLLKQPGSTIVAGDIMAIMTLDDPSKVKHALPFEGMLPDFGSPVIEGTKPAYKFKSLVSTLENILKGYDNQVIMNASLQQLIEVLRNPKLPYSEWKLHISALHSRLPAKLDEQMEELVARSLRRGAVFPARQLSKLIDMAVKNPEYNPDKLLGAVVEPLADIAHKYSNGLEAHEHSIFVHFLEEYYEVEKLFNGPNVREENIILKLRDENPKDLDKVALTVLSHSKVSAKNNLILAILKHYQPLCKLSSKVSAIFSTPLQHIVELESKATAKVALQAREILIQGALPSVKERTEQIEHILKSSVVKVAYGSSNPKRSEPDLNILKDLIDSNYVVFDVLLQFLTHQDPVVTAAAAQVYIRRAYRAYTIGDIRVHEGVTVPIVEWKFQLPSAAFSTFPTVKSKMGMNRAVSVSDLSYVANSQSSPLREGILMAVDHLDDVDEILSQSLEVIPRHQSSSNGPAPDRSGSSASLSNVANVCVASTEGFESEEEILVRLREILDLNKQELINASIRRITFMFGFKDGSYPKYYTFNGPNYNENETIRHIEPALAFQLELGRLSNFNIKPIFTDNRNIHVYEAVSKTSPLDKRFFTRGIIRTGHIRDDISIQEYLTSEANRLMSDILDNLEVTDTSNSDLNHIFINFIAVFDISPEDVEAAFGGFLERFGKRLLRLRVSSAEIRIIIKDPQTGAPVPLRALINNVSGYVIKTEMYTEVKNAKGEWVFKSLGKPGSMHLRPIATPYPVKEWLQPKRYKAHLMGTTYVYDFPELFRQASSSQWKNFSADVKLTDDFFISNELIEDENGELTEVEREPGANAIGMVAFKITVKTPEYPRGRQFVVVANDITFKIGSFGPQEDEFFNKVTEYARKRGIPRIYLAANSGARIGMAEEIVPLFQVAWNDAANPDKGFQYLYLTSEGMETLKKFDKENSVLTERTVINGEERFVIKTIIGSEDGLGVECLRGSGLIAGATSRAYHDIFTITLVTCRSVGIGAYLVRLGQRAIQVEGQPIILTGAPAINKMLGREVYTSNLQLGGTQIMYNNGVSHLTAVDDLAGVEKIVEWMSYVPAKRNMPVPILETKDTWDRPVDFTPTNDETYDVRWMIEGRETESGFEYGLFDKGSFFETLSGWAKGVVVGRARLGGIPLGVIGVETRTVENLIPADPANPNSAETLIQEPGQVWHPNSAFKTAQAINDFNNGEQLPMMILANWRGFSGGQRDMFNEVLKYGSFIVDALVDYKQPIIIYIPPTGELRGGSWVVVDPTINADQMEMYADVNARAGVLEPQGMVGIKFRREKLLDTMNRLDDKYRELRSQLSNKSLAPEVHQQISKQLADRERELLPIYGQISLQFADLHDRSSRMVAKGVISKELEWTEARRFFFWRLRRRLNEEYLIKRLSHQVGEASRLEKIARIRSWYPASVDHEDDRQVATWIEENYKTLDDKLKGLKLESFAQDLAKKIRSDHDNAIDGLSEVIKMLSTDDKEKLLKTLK

Sample records with IC50:
>  <compound>
COc1ccc(F)cc1[C@H](Cn1c(=O)n(C(C)C(=O)NC(C)C)c(=O)c2c(C)c(-n3cccn3)sc21)OCCO (stereo partly drawn) [Compound I-59]

>  <IC50>
0.6 to 3 nM

$$$$
>  <compound>
COCCO[C@@H](Cn1c(=O)n(C(C)C(=O)O)c(=O)c2c(C)c(-n3cccn3)sc21)c1cc(F)ccc1OC (stereo partly drawn) [Compound I-57]

>  <IC50>
10 to 40 nM

$$$$
>  <compound>
COCCO[C@@H](Cn1c(=O)n(C(C)(C)C(=O)NC2CCCCC2)c(=O)c2c(C)c(-n3cccn3)sc21)c1cc(F)ccc1OC [Compound I-46]

>  <IC50>
0.6 to 3 nM

$$$$
>  <compound>
COc1ccc(F)cc1[C@H](Cn1c(=O)n(C(C)C(=O)O)c(=O)c2c(C)c(-n3cccn3)sc21)OCC(C)(C)O (stereo partly drawn) [Compound I-62]

>  <IC50>
0.6 to 3 nM

$$$$
>  <compound>
COc1ccc(F)cc1[C@H](Cn1c(=O)n(C(C)C(=O)N2CCCC2)c(=O)c2c(C)c(-n3cccn3)sc21)OC(C)C (stereo partly drawn) [Compound I-32]

>  <IC50>
0.6 to 3 nM

$$$$

Let us examine a further case.
Q: What reported IC50 corresponds to COCCCO[C@@H](Cn1c(=O)n(C(C)C(=O)N2CCCC2)c(=O)c2c(C)c(-n3cccn3)sc21)c1cc(F)ccc1OC (stereo partly drawn) [Compound I-70] on fungal (fACC2) ACC2 (UniProt Q00955)?
Result: 0.6 to 3 nM

====

System: C. parapsilosis ATCC 22019
experimentalDetails: Anti-Fungal (Candida) Activity Assay, broth microtiter MIC
Type: cell-based
assayContext: Lodderomyces parapsilosis, ATCC22019; 3 replicates, MIC recorded at 48 h; read-out: MIC C. parapsilosis ATCC 22019
Method: Compounds of the present invention were evaluated in an Anti-Fungal Activity Assay. An exemplary procedure for the assay, which measures the susceptibility of various Candida species to anti-fungal compounds, follows. […] The concentration of the suspension was determined using pre-determined standard curves. […] The original CLSI guidelines focused on reading Candida MICs after 48 h of incubation. […]
quantityMeasured: MIC

>  <compound>
Cc1c(-n2cccn2)sc2c1c(=O)n(C(C)(C)C(=O)NC(C)C)c(=O)n2C[C@H](OC1CCOCC1)c1cc(F)ccc1OCCO

>  <targetEntity>
C. parapsilosis ATCC 22019

>  <MIC>
> 4.1 µg/mL

$$$$
>  <compound>
COCCCO[C@@H](Cn1c(=O)n(C(C)C(=O)NC(C)C)c(=O)c2c(C)c(-n3cccn3)sc21)c1cc(F)ccc1OC (stereo partly shown)

>  <targetEntity>
C. parapsilosis ATCC 22019

>  <MIC>
> 4.1 µg/mL

$$$$
>  <compound>
COc1ccc(F)cc1[C@H](Cn1c(=O)n(C(C)(C)C(N)=O)c(=O)c2c(C)c(-n3cccn3)sc21)OC1CCC(=O)CC1

>  <targetEntity>
C. parapsilosis ATCC 22019

>  <MIC>
1.1 to 2 µg/mL

$$$$

Q: What value of MIC has been reported for the following compound? COCCO[C@@H](Cn1c(=O)n(C(C)C(=O)N2CCCC2)c(=O)c2c(C)c(-n3cccn3)sc21)c1cc(F)ccc1OC (mixture of isomers)
Result: > 4.1 µg/mL
